# measured on: T1, canine beta-NGF (cNGF) (canine, UniProt Q29074 110-229 (pig entry))
# T1 construct: also called canine NGF; can NGF
# T1 chain: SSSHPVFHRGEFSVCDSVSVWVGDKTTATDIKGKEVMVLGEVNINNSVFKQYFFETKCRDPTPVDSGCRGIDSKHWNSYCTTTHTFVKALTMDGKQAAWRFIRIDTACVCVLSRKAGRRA
# method: SPR (Biacore), cNGF binding
endpoint label: kon
Your reply should be a number followed by the unit it is expressed in.

// worked examples, kon included
182m70 (antibody, V domains shown, 51 except in CDR2 (TSSLHG); 51 (CDR2 Pos. 1-6 = residues 51-56); also called Can-182-m70) VH: EVQLVESGGDLARPGGSLKLSCVVSGFTLTQYGINWVRQAPGKGLQWVTVIWATGATDYNSALKSRFTVSRDNAMNTVYLQMNSLRVEDTAVYYCARDGWWYATSWYFDVWGQGTLVTVSS VL: DIVMTQTPLSLSVSPGEPASISCKASQDINHYLNWFRQKPDGTVKLLIYYTSSLHGGVPSRFSGSGSGTDFTLRISRVEADDAGVYYCQQGDHFPRTFGQGT = 1930 M⁻¹ s⁻¹
182m43 (antibody, V domains shown, 51 except in CDR2 (THSLHN); 51 as printed; also called Can-182-m43) VH: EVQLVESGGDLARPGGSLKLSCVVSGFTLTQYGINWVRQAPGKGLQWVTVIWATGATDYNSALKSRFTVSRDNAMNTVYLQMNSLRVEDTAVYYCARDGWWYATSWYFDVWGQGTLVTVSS VL: DIVMTQTPLSLSVSPGEPASISCKASQDINHYLNWFRQKPDGTVKLLIYYTHSLHNGVPSRFSGSGSGTDFTLRISRVEADDAGVYYCQQGDHFPRTFGQGT = 769 M⁻¹ s⁻¹
182m114 (antibody, V domains shown, 51 except in CDR2 (TASLHQ); 51 (CDR2 Pos. 1-6 = residues 51-56); also called Can-182-m114) VH: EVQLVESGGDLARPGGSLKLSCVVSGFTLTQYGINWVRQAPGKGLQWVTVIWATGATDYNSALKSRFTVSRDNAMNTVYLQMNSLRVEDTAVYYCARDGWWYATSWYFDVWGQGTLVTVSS VL: DIVMTQTPLSLSVSPGEPASISCKASQDINHYLNWFRQKPDGTVKLLIYYTASLHQGVPSRFSGSGSGTDFTLRISRVEADDAGVYYCQQGDHFPRTFGQGT = 1790 M⁻¹ s⁻¹
182m75 (antibody, V domains shown, 51 except in CDR2 (TSSLHV); 51 (CDR2 Pos. 1-6 = residues 51-56); also called Can-182-m75) VH: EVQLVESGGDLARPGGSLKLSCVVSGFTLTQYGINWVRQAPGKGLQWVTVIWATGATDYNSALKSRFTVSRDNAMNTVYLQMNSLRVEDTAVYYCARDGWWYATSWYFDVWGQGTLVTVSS VL: DIVMTQTPLSLSVSPGEPASISCKASQDINHYLNWFRQKPDGTVKLLIYYTSSLHVGVPSRFSGSGSGTDFTLRISRVEADDAGVYYCQQGDHFPRTFGQGT = 444 M⁻¹ s⁻¹

Given 182m72 (antibody, V domains shown, 51 except in CDR2 (TSSLHQ); 51 (CDR2 Pos. 1-6 = residues 51-56); also called Can-182-m72) VH: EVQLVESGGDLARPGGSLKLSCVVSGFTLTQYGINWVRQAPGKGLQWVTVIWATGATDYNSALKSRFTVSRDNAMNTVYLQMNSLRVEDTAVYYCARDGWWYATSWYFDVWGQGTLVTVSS VL: DIVMTQTPLSLSVSPGEPASISCKASQDINHYLNWFRQKPDGTVKLLIYYTSSLHQGVPSRFSGSGSGTDFTLRISRVEADDAGVYYCQQGDHFPRTFGQGT , state its recorded kon. 3760 M⁻¹ s⁻¹
